Values were extracted from ChEMBL document CHEMBL1641588.

Tested on: Aspergillus niger
Assay: Antifungal activity against Aspergillus niger by liquid dilution method
Format: functional
experimental.readout: MIC (mg/L)

molecule=O=c1oc2c(Cl)cc(Cl)cc2cc1-c1nc2ccccc2c2nc3ccccc3n12 experimental_readout=MIC endpoint_value=35

a: O=c1oc2ccc([N+](=O)[O-])cc2cc1-c1nc2ccccc2c2nc3ccccc3n12
b: O=c1oc2c(Br)cc(Br)cc2cc1-c1nc2ccccc2c2nc3ccccc3n12
Incoming: Problem: Given the entries a and b , determine which has the lower reported MIC. API: response body contains the label of the selected item.
Outgoing: b
(b: 20 mg/L, a: 45 mg/L)

1: O=c1oc2ccccc2cc1-c1nc2ccccc2c2nc3ccccc3n12
2: Cc1cccc2cc(-c3nc4ccccc4c4nc5ccccc5n34)c(=O)oc12
Incoming: Given the listed items, does 1 or 2 have the lesser reported MIC? Reply with the label of the item you choose.
Outgoing: 1

1: Cc1cccc2cc(-c3nc4ccccc4c4nc5c6nsnc6ccc5n34)c(=O)oc12
2: O=c1oc2c(Br)cccc2cc1-c1nc2ccccc2c2nc3c4nsnc4ccc3n12
Incoming: Parameter metric = MIC. Return the lower-valued option from 1 and 2 . To answer, give the label that identifies your chosen option.
Outgoing: 2

P: O=c1oc2c(Cl)cc(Cl)cc2cc1-c1nc2ccccc2c2nc3c4nsnc4ccc3n12
Q: O=c1oc2c(Br)cc(Br)cc2cc1-c1nc2ccccc2c2nc3c4nsnc4ccc3n12
Incoming: Could you check which of P and Q has a smaller value for MIC? Select an item and report its label.
Outgoing: Q
(Q: 25 mg/L, P: 40 mg/L)

---

System: Streptococcus pyogenes
Experiment: Antibacterial activity against Streptococcus pyogenes at 1000 ug/mL after 72 hrs by agar diffusion assay
Format: functional
Details: read-out: IZ
experimental.readout: zone of inhibition at 1000 µg/mL (mm)
Form entry: value (mm) — number only.

Solved cases (2 shown):
chemical_smiles=O=c1oc2ccc([N+](=O)[O-])cc2cc1-c1nc2ccccc2c2nc3ccccc3n12 result_units=mm endpoint_value=28
chemical_smiles=Cc1cccc2cc(-c3nc4ccccc4c4nc5ccccc5n34)c(=O)oc12 result_units=mm endpoint_value=24

Now consider a different compound.
Incoming: Param item = O=c1oc2ccccc2cc1-c1nc2ccccc2c2nc3ccccc3n12 ; retrieve measured zone of inhibition at 1000 µg/mL.
Outgoing: 23

---

System: Klebsiella pneumoniae
Experiment: Antibacterial activity against Klebsiella pneumoniae by liquid dilution method
Format: functional
experimental.readout: MIC (mg/L)

Some solved cases for reference:
compound="CC1(C)S[C@@H]2[C@H](NC(=O)[C@H](N)c3ccccc3)C(=O)N2[C@H]1C(=O)O [AMPICILLIN]" experimental_readout=MIC endpoint_value=10
compound=O=c1oc2c(Br)cc(Br)cc2cc1-c1nc2ccccc2c2nc3c4nsnc4ccc3n12 experimental_readout=MIC endpoint_value=5
compound=Cc1cccc2cc(-c3nc4ccccc4c4nc5ccccc5n34)c(=O)oc12 experimental_readout=MIC endpoint_value=30
compound=O=c1oc2c(Cl)cc(Cl)cc2cc1-c1nc2ccccc2c2nc3ccccc3n12 experimental_readout=MIC endpoint_value=5
compound=O=c1oc2c(Br)cccc2cc1-c1nc2ccccc2c2nc3c4nsnc4ccc3n12 experimental_readout=MIC endpoint_value=25
compound=O=c1oc2ccccc2cc1-c1nc2ccccc2c2nc3ccccc3n12 experimental_readout=MIC endpoint_value=30
compound=O=c1oc2c(Br)cc(Br)cc2cc1-c1nc2ccccc2c2nc3ccccc3n12 experimental_readout=MIC endpoint_value=35
compound=O=c1oc2ccccc2cc1-c1nc2ccccc2c2nc3c4nsnc4ccc3n12 experimental_readout=MIC endpoint_value=35

I: O=c1oc2c(Br)cccc2cc1-c1nc2ccccc2c2nc3ccccc3n12
II: O=c1oc2ccc([N+](=O)[O-])cc2cc1-c1nc2ccccc2c2nc3c4nsnc4ccc3n12
Incoming: # min-compare on MIC between I and II Write down the label attached to your selection.
Outgoing: I

---

Recorded zone of inhibition at 1000 µg/mL by entry
System: Aspergillus niger
Assay: Antifungal activity against Aspergillus niger at 1000 ug/mL after 72 hrs by agar diffusion assay
Assay type: functional
Settings: read-out: IZ
Please reply with the bare figure in mm and do not write the unit itself.

As a guide, the following entries are already answered.
compound=O=c1oc2c(Cl)cc(Cl)cc2cc1-c1nc2ccccc2c2nc3ccccc3n12 endpoint_value=38
compound=O=c1oc2c(Br)cc(Br)cc2cc1-c1nc2ccccc2c2nc3ccccc3n12 endpoint_value=48
compound=O=c1oc2ccc([N+](=O)[O-])cc2cc1-c1nc2ccccc2c2nc3ccccc3n12 endpoint_value=29
compound=Cc1cccc2cc(-c3nc4ccccc4c4nc5c6nsnc6ccc5n34)c(=O)oc12 endpoint_value=28
compound=O=c1oc2c(Br)cccc2cc1-c1nc2ccccc2c2nc3c4nsnc4ccc3n12 endpoint_value=31

Incoming: Bench note: what zone of inhibition at 1000 µg/mL did O=c1oc2c(Br)cccc2cc1-c1nc2ccccc2c2nc3ccccc3n12 show?
Outgoing: 37

Incoming: # query: zone of inhibition at 1000 µg/mL of entry O=c1oc2c(Cl)cc(Cl)cc2cc1-c1nc2ccccc2c2nc3c4nsnc4ccc3n12
Outgoing: 33

Incoming: State the recorded zone of inhibition at 1000 µg/mL for this entry: O=c1oc2ccccc2cc1-c1nc2ccccc2c2nc3ccccc3n12
Outgoing: 34

Incoming: Which zone of inhibition at 1000 µg/mL reading was recorded for the compound O=c1oc2ccc([N+](=O)[O-])cc2cc1-c1nc2ccccc2c2nc3c4nsnc4ccc3n12 ?
Outgoing: 36

Incoming: Consider the compound O=c1oc2ccccc2cc1-c1nc2ccccc2c2nc3c4nsnc4ccc3n12 and give its measured zone of inhibition at 1000 µg/mL.
Outgoing: 22

Incoming: Look up zone of inhibition at 1000 µg/mL for this compound: CC(=O)N1CCN(c2ccc(OCC3COC(Cn4ccnc4)(c4ccc(Cl)cc4Cl)O3)cc2)CC1 (stereo not drawn) [KETOCONAZOLE]
Outgoing: 45

Incoming: Please look up its zone of inhibition at 1000 µg/mL: O=c1oc2c(Br)cc(Br)cc2cc1-c1nc2ccccc2c2nc3c4nsnc4ccc3n12
Outgoing: 34

Incoming: Entry Cc1cccc2cc(-c3nc4ccccc4c4nc5ccccc5n34)c(=O)oc12 : reported zone of inhibition at 1000 µg/mL = ?
Outgoing: 27

---

# zone of inhibition at 1000 µg/mL per entry
Test system: Bacillus subtilis
Assay: Antibacterial activity against Bacillus subtilis at 1000 ug/mL after 72 hrs by agar diffusion assay
Type: functional
Settings: read-out: IZ
Give the value in mm but do not write mm after it.

chemical_smiles=O=c1oc2c(Br)cc(Br)cc2cc1-c1nc2ccccc2c2nc3ccccc3n12 assayed_target="Bacillus subtilis" endpoint_value=34

Note: attention shifts to another entry.
Incoming: Lab note: need zone of inhibition at 1000 µg/mL for Cc1cccc2cc(-c3nc4ccccc4c4nc5ccccc5n34)c(=O)oc12 on Bacillus subtilis, anyone have it?
Outgoing: 30

---

Tested on: Klebsiella pneumoniae
Assay: Antibacterial activity against Klebsiella pneumoniae by liquid dilution method
Format: functional
experimental.readout: MIC (µg/mL)

chemical_smiles=Cc1cccc2cc(-c3nc4ccccc4c4nc5c6nsnc6ccc5n34)c(=O)oc12 endpoint_value=25
chemical_smiles=O=c1oc2ccc([N+](=O)[O-])cc2cc1-c1nc2ccccc2c2nc3ccccc3n12 endpoint_value=40
chemical_smiles=O=c1oc2c(Cl)cc(Cl)cc2cc1-c1nc2ccccc2c2nc3c4nsnc4ccc3n12 endpoint_value=35

---

Tested on: Escherichia coli
Experiment: Antibacterial activity against Escherichia coli by liquid dilution method
Type: functional
experimental.readout: MIC (µg/mL)

chemical_smiles=O=c1oc2c(Br)cc(Br)cc2cc1-c1nc2ccccc2c2nc3c4nsnc4ccc3n12 endpoint_value=10
chemical_smiles=O=c1oc2ccc([N+](=O)[O-])cc2cc1-c1nc2ccccc2c2nc3ccccc3n12 endpoint_value=30

A: O=c1oc2c(Br)cccc2cc1-c1nc2ccccc2c2nc3c4nsnc4ccc3n12
B: O=c1oc2c(Cl)cc(Cl)cc2cc1-c1nc2ccccc2c2nc3ccccc3n12
Incoming: Between A and B , whose recorded MIC is greater? Please indicate the selected item by its label.
Outgoing: A
(A: 35 µg/mL, B: 10 µg/mL)

---

Tested on: Bacillus subtilis
Experiment: Antibacterial activity against Bacillus subtilis at 1000 ug/mL after 72 hrs by agar diffusion assay
Type: functional
Conditions: read-out: IZ
experimental.readout: zone of inhibition at 1000 µg/mL (mm)
Only the number, expressed in mm, is required.

Recorded results for 3 compounds are shown here.
chemical_smiles=O=c1oc2ccccc2cc1-c1nc2ccccc2c2nc3ccccc3n12 assayed_target="Bacillus subtilis" endpoint_value=31
chemical_smiles=Cc1cccc2cc(-c3nc4ccccc4c4nc5c6nsnc6ccc5n34)c(=O)oc12 assayed_target="Bacillus subtilis" endpoint_value=26
chemical_smiles=O=c1oc2c(Cl)cc(Cl)cc2cc1-c1nc2ccccc2c2nc3c4nsnc4ccc3n12 assayed_target="Bacillus subtilis" endpoint_value=34

Incoming: Quick one: zone of inhibition at 1000 µg/mL for O=c1oc2c(Br)cccc2cc1-c1nc2ccccc2c2nc3c4nsnc4ccc3n12 ?
Outgoing: 29
